Hello, the source for this data is paper PMC10413920, in case you need it.

# Candida albicans SC5314: MIC values follow
ASSAY READOUT: MIC (µg/mL)

Worked cases, answers included:
In [3]: df
Out[3]:
                                   compound  assay_readout  endpoint_value
0  CC(=O)N1CCN(c2ccc(OCC3COC(Cn4ccnc4)(c4ccc(Cl)cc4Cl)O3)cc2)CC1 (stereo not drawn) [KCZ, ketoconazole, reference compound]            MIC               4
1  Cc1ccc(CCC(=O)N[C@H](C)[C@](O)(Cn2cncn2)c2ccc(F)cc2F)cn1            MIC              16
2  CC(=O)c1ccc(CCC(=O)N[C@H](C)[C@](O)(Cn2cncn2)c2ccc(F)cc2F)cc1            MIC               2
3  Cc1ccc(CCC(=O)N[C@H](C)[C@](O)(Cn2cncn2)c2ccc(F)cc2F)nc1            MIC               2

[I] Cc1cncc(CCC(=O)N[C@H](C)[C@](O)(Cn2cncn2)c2ccc(F)cc2F)c1
[II] Cc1ccncc1CCC(=O)N[C@H](C)[C@](O)(Cn1cncn1)c1ccc(F)cc1F
[III] OC(Cn1cncn1)(Cn1cncn1)c1ccc(F)cc1F [FCZ, fluconazole, reference compound]
[IV] Cc1ccnc(CCC(=O)N[C@H](C)[C@](O)(Cn2cncn2)c2ccc(F)cc2F)c1
Sort ascending by MIC. Your task in answering is to list the labels in the requested order.
III, IV, I, II

* * *

Tested on: FCZ-resistant C. albicans 901
Assay: MIC against FCZ-resistant strains, microdilution
Assay type: cell-based, Candida albicans
Details: Candida albicans; FCZ-resistant isolate, 30 °C, 24 h; read-out: MIC, C.alb 901
ASSAY READOUT: MIC (µg/mL)

>>> df
                                   compound   unit  endpoint_value
0  C[C@@H](NC(=O)CCc1ccc(C(C)(C)C)cc1)[C@](O)(Cn1cncn1)c1ccc(F)cc1F [A9]  µg/mL              32

[1] C[C@@H](NC(=O)CCc1ccc(F)c(F)c1)[C@](O)(Cn1cncn1)c1ccc(F)cc1F [A14]
[2] C[C@@H](NC(=O)CCc1ccc(Cl)c(F)c1)[C@](O)(Cn1cncn1)c1ccc(F)cc1F [A15]
[3] C[C@@H](NC(=O)CCc1ccc(Cl)c(Cl)c1)[C@](O)(Cn1cncn1)c1ccc(F)cc1F [A16]
Sort ascending by MIC. Your task in answering is to list the labels in the requested order.
3, 1, 2
(3: 2 µg/mL, 1: 4 µg/mL, 2: 8 µg/mL)

* * *

# Cryptococcus neoformans 22-21: MIC values follow
ASSAY READOUT: MIC (µg/mL)

Worked cases, answers included:
>>> print(df.to_string())
                                   compound                   assay_target  endpoint_value
0  OC(Cn1cncn1)(Cn1cncn1)c1ccc(F)cc1F [FCZ, fluconazole, reference compound]  Cryptococcus neoformans 22-21               1
1  CC(=O)c1ccc(CCC(=O)N[C@H](C)[C@](O)(Cn2cncn2)c2ccc(F)cc2F)cc1 [A11]  Cryptococcus neoformans 22-21               1

[a] Cc1cncc(CCC(=O)N[C@H](C)[C@](O)(Cn2cncn2)c2ccc(F)cc2F)c1 [A24]
[b] Cc1ccnc(CCC(=O)N[C@H](C)[C@](O)(Cn2cncn2)c2ccc(F)cc2F)c1 [A20]
[c] CC(=O)N1CCN(c2ccc(OCC3COC(Cn4ccnc4)(c4ccc(Cl)cc4Cl)O3)cc2)CC1 (stereo not shown) [KCZ, ketoconazole, reference compound]
Falling order of MIC, please. Your task in answering is to list the labels in the requested order.
a, b, c
